target: Free fatty acid receptor 1 (Homo sapiens); experiment: Antagonist activity against human FFA1 expressed in human Flp-In T-REx293 cells assessed as as reduction in TUG424-induced response by Fura2-AM dye based calcium mobilization assay; format: functional, cell-based
Threshold-based label: IC50 under 8 µM gives 1 (yes), IC50 not under 8 µM gives 0 (no).

For orientation, consider the following solved cases.
# Molecule, Assigned Class
rows = [
    ("Cc1ccc(Oc2cc(F)cc(N3Cc4ccccc4S3(=O)=O)c2)cc1", "1 (yes)"),
    ("Cc1cccc(Oc2cc(F)cc(N3Cc4ccccc4S3(=O)=O)c2)c1", "0 (no)"),
    ("N#Cc1ccc(Oc2cc(F)cc(N3Cc4ccccc4S3(=O)=O)c2)cc1", "1 (yes)"),
    ("O=S1(=O)c2ccccc2CN1c1cc(F)cc(Oc2ccccc2)c1", "1 (yes)"),
    ("O=S(=O)(Nc1ccc(Oc2ccccc2)cc1)c1ccc(F)cc1", "0 (no)"),
    ("Cc1ccccc1Oc1cc(F)cc(N2Cc3ccccc3S2(=O)=O)c1", "0 (no)"),
    ("O=S1(=O)c2ccccc2CN1c1cccc(Oc2ccccc2)c1", "1 (yes)"),
    ("CN(c1ccc(Oc2ccccc2)cc1)S(=O)(=O)c1ccc(F)cc1", "0 (no)"),
]

Is it true that IC50 reported for O=S1(=O)c2ccccc2CN1c1cc(F)cc(Oc2ccncc2)c1 is less than 8 µM?
0 (no)

Determine whether this molecule shows IC50 lower than 8 µM (ties excluded): O=S1(=O)c2ccccc2CN1c1cc(F)cc(Oc2ccccn2)c1
0 (no)

* * *

target: UniProt O14842; test: Antagonist activity against human FFA1 expressed in human Flp-In T-REx293 cells assessed as as reduction in 300 nM TUG424-induced response by Fura2-AM dye based calcium mobilization assay relative to untreated control; format: functional, cell-based
Provide the reported Imax of each item.
One number for each entry, in %.

Examples from the recorded data:
# Molecule, Parameter, Unit Symbol, Endpoint Value
measured = [
    ("O=S1(=O)c2ccccc2CN1c1cccc(Oc2ccccc2)c1", "Imax", "%", 39),
    ("Cc1cccc(Oc2cc(F)cc(N3Cc4ccccc4S3(=O)=O)c2)c1", "Imax", "%", 51),
    ("Cc1ccccc1Oc1cc(F)cc(N2Cc3ccccc3S2(=O)=O)c1", "Imax", "%", 71),
    ("CN(c1ccc(Oc2ccccc2)cc1)S(=O)(=O)c1ccc(F)cc1", "Imax", "%", 57),
    ("CCCCc1ccc(NS(=O)(=O)c2ccc(F)cc2)cc1", "Imax", "%", 68),
    ("Cc1ccc(Oc2cc(F)cc(N3Cc4ccccc4S3(=O)=O)c2)cc1", "Imax", "%", 52),
]

Give one value of Imax per listed molecule.
1. Cc1ccc(S(=O)(=O)Nc2ccc(Oc3ccccc3)cc2)cc1
2. N#Cc1ccc(Oc2cc(F)cc(N3Cc4ccccc4S3(=O)=O)c2)cc1
3. O=S1(=O)c2ccccc2CN1c1cc(F)cc(Oc2ccccc2)c1

1. 100
2. 43
3. 47

* * *

target: Free fatty acid receptor 1 (Homo sapiens, UniProt O14842); assay: Antagonist activity against human FFA1 expressed in human Flp-In T-REx293 cells assessed as as reduction in TUG424-induced response by Fura2-AM dye based calcium mobilization assay; type: functional, cell-based
Sequence (O14842 whole entry): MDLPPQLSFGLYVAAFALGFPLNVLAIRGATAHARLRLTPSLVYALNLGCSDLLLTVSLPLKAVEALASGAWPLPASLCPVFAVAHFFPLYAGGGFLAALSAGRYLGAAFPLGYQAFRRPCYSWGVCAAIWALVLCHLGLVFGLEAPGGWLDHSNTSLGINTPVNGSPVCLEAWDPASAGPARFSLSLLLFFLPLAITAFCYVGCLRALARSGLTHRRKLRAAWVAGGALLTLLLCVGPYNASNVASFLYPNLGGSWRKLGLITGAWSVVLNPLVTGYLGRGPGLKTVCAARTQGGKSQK
For each entry below, report its IC50 value.
Give bare numbers, in µM.

In the examples that follow, each entry is paired with its recorded IC50.
# Molecule, Target Desc, IC50 [µM]
rows = [
    ("N#CCc1cccc(Oc2cc(F)cc(N3Cc4ccccc4S3(=O)=O)c2)c1", "Free fatty acid receptor 1 (Homo sapiens, UniProt O14842)", 20),
    ("O=S1(=O)c2ccccc2CN1c1cc(F)cc(OCc2ccccc2)c1", "Free fatty acid receptor 1 (Homo sapiens, UniProt O14842)", 2.45),
    ("Cc1ccc(S(=O)(=O)Nc2ccc(Oc3ccccc3)cc2)cc1", "Free fatty acid receptor 1 (Homo sapiens, UniProt O14842)", 10),
]

In the following, a different compound is considered.
Write down IC50 measured for item N#Cc1cccc(Oc2cc(F)cc(N3Cc4ccccc4S3(=O)=O)c2)c1
3.39

Data origin, for the record: ChEMBL document CHEMBL3860043
